meta.source: patent US20250145711A1

target: T1, CD3 on primary human pan T cells (human, UniProt P07766 23-207); assay: flow cytometry, pan T-cells
T1 construct: on cells it stands in the TCR/CD3 complex; also called Pan T-cells (CD3-positive); endogenous CD3
T1 sequence (P07766 23-207 limits assumed): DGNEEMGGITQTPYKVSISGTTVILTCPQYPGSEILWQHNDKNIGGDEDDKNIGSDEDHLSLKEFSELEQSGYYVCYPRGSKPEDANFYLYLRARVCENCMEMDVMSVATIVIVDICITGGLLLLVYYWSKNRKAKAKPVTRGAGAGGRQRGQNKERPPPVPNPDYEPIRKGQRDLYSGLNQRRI
ASSAY_ENDPOINT: % Binding retained on T-cells, 65° C. (fraction)
Field format: number, assumed fraction, no unit text.

>>> numeric_value("CD3B2035 (scFv) scFv: QVQLVQSGAEVKKPGSSVKVSCKASGYTFTRSTMHWVKQAPGQGLEWMGYINPSSAYTNYNQKFQGRVTLTADKSTSTAYMELSSLRSEDTAVYYCASPQVHYDYNGFPYWGQGTLVTVSSGGSEGKSSGSGSESKSTGGSEIVLTQSPATLSASPGERVTLSCSASSSVSYMNWYQQKPGQAPRRWIYDSSKLASGVPARFSGSGSGRDYTLTISSLEPEDFAVYYCQQWSRNPPTFGGGTKVEIK")
0.455
>>> numeric_value("CD3B2030 (scFv) scFv: QVQLVQSGAEVKKPGSSVKVSCKASGYTFTRSTMHWVKQAPGQGLEWIGYINPSSAYTNYNQKFQGRVTLTADKSTSTAYMELSSLRSEDTAVYYCASPQVHYDYNGFPYWGQGTLVTVSSGGSEGKSSGSGSESKSTGGSEIVLTQSPATLSASPGERVTLSCSASSSVSYMNWYQQKPGQAPRRWIYDSSKLASGVPARFSGSGSGRDYTLTISSLEPEDFAVYYCQQWSRNPPTFGGGTKVEIK")
0.757
>>> numeric_value("CD3B2072 (scFv) scFv: QVQLVQSGAEVKKPGSSVKVSCKASGYTFTRSTMHWVRQAPGQGLEWMGYINPSSAYTNYNQKFQGRVTLTADKSTSTAYMELSSLRSEDTAVYYCASPQVHYDYNGFPYWGQGTLVTVSSGGSEGKSSGSGSESKSTGGSEIVLTQSPATLSASPGERVTLSCSASSSVSYMNWYQQKPGQSPRRWIYDSSKLASGVPARFSGSGSGRDYTLTISSLEPEDFAVYYCQQWSRNPPTFGGGTKVEIK")
0.0933

# % Binding retained on T-cells, 65° C. lookup, item CD3B2039 (scFv) scFv: QVQLVQSGAEVKKPGSSVKVSCKASGYTFTRSTMHWVKQAPGQGLEWMGYINPSSAYTNYAQKFQGRVTLTADKSTSTAYMELSSLRSEDTAVYYCASPQVHYDYNGFPYWGQGTLVTVSSGGSEGKSSGSGSESKSTGGSEIVLTQSPATLSASPGERVTLSCSASSSVSYMNWYQQKPGQSPRRWIYDSSKLASGVPARFSGSGSGRDYTLTISSLEPEDFAVYYCQQWSRNPPTFGGGTKVEIK
0.609
